- target-entity: recombinant homotrimeric HA A/Hong Kong/156/97 H5N1 (Influenza A virus A/Hong Kong/156/97 (H5N1))
- procedure-text: protein microarray, purified IgG, trimeric HA
- assay-conditions: remark: other sources report otherwise
measurement-kind: Trimeric HA Binding: RLU (RLU)
Respond with the bare value in RLU.

Look over these answered cases.
INSERT INTO measurements (binder, result_value) VALUES
  ('TCN-530 (5248_H10a) (antibody, V domains shown) VH: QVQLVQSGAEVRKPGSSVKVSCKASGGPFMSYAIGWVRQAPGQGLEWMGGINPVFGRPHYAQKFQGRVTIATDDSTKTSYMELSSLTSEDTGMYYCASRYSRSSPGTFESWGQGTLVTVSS VL: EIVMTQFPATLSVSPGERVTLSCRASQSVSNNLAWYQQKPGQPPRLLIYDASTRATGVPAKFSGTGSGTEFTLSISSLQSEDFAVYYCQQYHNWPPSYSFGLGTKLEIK', 14000),
  ('TCN-531 (5091_H13) (antibody, V domains shown) VH: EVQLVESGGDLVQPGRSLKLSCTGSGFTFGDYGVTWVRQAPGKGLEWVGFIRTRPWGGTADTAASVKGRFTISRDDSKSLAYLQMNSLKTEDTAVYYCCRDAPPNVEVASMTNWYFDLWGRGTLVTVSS VL: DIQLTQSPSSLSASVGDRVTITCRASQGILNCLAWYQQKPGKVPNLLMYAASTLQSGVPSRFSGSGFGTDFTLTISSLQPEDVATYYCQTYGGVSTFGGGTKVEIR', 259),
  ('TCN-522 (3212_I12) (antibody, V domains shown) VH: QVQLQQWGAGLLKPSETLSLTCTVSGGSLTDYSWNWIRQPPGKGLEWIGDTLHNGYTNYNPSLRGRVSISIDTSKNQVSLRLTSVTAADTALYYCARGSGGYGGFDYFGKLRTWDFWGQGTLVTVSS VL: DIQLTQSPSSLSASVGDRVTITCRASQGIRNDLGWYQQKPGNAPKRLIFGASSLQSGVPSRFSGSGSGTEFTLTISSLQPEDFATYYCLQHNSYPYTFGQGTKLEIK', 14800),
  ('TCN-557 (5081_A04) (antibody, V domains shown) VH: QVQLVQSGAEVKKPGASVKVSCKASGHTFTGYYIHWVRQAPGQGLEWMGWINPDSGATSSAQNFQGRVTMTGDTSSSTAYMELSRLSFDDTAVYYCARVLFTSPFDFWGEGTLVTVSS VL: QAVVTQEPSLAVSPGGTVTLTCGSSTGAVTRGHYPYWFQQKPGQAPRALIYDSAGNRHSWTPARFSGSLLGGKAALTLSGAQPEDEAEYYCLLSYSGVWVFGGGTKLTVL', 22800);

From here, focus on the item given below.
[in] Look up Trimeric HA Binding: RLU of TCN-527 (5086_C06) (antibody, V domains shown) VH: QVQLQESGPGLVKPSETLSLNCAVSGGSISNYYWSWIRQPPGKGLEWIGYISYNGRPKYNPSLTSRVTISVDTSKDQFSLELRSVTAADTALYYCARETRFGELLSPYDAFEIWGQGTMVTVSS VL: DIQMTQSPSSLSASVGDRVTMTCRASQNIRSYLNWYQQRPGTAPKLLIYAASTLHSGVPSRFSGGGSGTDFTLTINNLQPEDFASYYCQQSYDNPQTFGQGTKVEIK and report it.
[out] 28600
